Entry source: ChEMBL document CHEMBL1212899

experimental system: Nucleic Acid
protocol text: Binding affinity to HIV1 frameshift-stimulating RNA by fluorescence titration
Format: nucleic-acid assay, Human immunodeficiency virus 1
test conditions: read-out: Kd
Kd listing for selected molecules.

>  <structure smiles>
CCc1nc2cc3c(cc2cc1C(=O)N[C@@H](CSSC[C@H](NC(=O)c1cc2cc4c(cc2nc1CC)OCO4)C(=O)N1CCC[C@H]1C(=O)N[C@@H](Cc1ccccc1)C(=O)NCCCN)C(=O)N1CCC[C@H]1C(=O)N[C@@H](Cc1ccccc1)C(=O)NCCCN)OCO3

>  <Kd>
1420 nM

$$$$
>  <structure smiles>
Cc1nc2ccccc2cc1C(=O)N[C@@H](CSSC[C@H](NC(=O)c1cc2ccccc2nc1C)C(=O)N1CCC[C@H]1C(=O)N[C@@H](Cc1ccccc1)C(=O)NCCCN)C(=O)N1CCC[C@H]1C(=O)N[C@@H](Cc1ccccc1)C(=O)NCCCN

>  <Kd>
430 nM

$$$$
